The reported measurements were obtained from patent US11180510B2.

molecular target: BRD4(BD1) (Homo sapiens); assay: BROMOscan assays; assay type: binding
propertyMeasured: Kd (µM)
# output: bare number, implied unit µM

Input: Output measured Kd for this item: CCn1cnc2c1c(=O)[nH]c(=O)n2Cc1ccc(CNS(=O)(=O)c2ccc(OC3CCOCC3)c(F)c2)cc1 [Compound 43c]
Output: 0.032

---

target: BRD4(BD1) (Homo sapiens); assay: HTRF assay, BRD4(BD1)/histone peptide interaction; type: binding; set-up: made in house; conditions: read-out: IC50 on BRD4(BD1) activity (concentration that inhibits protein-protein interaction by 50%); HTRF; triplicates; NA = IC50 > maximal concentration of compound used
propertyMeasured: pIC50
In textbook form, pIC50 equals minus log to base ten of the concentration in mol/L.

Input: Output measured pIC50 for this item: CCn1cnc2c1c(=O)[nH]c(=O)n2Cc1ccc(CNS(=O)(=O)c2ccc3c(c2)CCCC(=O)N3)cc1 [Compound 27c]
Output: 6.55
